# credit: patent US20220177594A1

study target: Canine_OSMR_hlgG1_Fc (canine)
Sequence (chain, as listed by the source limits assumed, form in doubt): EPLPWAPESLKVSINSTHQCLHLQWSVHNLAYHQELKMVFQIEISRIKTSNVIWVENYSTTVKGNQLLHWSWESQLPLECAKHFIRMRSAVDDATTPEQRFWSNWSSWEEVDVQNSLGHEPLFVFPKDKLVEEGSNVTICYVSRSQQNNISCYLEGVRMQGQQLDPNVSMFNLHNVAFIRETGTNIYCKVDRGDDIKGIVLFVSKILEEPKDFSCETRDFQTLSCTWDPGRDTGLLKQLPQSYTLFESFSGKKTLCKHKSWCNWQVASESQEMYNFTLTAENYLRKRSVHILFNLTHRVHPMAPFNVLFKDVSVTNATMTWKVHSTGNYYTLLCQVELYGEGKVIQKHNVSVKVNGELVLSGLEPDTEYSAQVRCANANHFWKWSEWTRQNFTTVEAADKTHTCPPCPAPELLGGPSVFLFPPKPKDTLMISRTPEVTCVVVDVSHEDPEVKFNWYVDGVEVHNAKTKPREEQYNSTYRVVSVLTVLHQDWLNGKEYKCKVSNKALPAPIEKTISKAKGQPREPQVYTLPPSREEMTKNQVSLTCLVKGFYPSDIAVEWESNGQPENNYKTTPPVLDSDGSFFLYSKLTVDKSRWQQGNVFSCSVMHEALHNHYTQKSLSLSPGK
assay overview: SPR Biacore
measured quantity: Kd (nM)
Give the number; nM is assumed, so skip it.

Sample records with Kd:
- mouse: canine 10F07 chimera (antibody, V domains shown) VH: DVKLVESGEGLVKPGGSLKLSCAASGFTFSSYAMSWVRQTPEKRLEWVTYISSGGDYFYYADTVKGRFTISRDNARNTLYLQMSSLKSEDTAMYYCTRDPITGTFAYWGQGTLVTVSA VL: DIQMTQTTSSLSASLGDRVTISCRASQDITNYLNWYQQKPDGTVKLLIYYTSTLHSGVPSRFSGSGSGTDFSLTISNLEQEDIATYFCQQGHMLPWTFGGGTKLEIKR: 6.13
- Mu_10F07_VH (SEQ ID NO: 39)_Y107A (antibody, V domains shown) VH: DVKLVESGEGLVKPGGSLKLSCAASGFTFSSYAMSWVRQTPEKRLEWVTYISSGGDYFYYADTVKGRFTISRDNARNTLYLQMSSLKSEDTAMYYCTRDPITGTFAAWGQGTLVTVSA VL: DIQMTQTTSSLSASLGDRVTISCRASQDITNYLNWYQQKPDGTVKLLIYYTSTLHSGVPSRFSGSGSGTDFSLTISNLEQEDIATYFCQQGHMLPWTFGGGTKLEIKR: 1.69

Short answer for Mu_10F07_VL (SEQ ID NO: 41)_T53A (antibody, V domains shown) VH: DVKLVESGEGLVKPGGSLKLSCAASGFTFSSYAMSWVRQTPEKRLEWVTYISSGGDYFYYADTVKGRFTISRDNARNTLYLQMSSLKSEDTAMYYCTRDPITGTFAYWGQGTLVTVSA VL: DIQMTQTTSSLSASLGDRVTISCRASQDITNYLNWYQQKPDGTVKLLIYYTSALHSGVPSRFSGSGSGTDFSLTISNLEQEDIATYFCQQGHMLPWTFGGGTKLEIKR : Kd was 3.94

Short answer for Mu_10F07_VL (SEQ ID NO: 41)_L33A (antibody, V domains shown) VH: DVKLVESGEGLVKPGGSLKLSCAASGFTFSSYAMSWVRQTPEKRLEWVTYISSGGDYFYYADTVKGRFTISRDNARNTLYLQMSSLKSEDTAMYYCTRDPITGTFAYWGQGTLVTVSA VL: DIQMTQTTSSLSASLGDRVTISCRASQDITNYANWYQQKPDGTVKLLIYYTSTLHSGVPSRFSGSGSGTDFSLTISNLEQEDIATYFCQQGHMLPWTFGGGTKLEIKR : Kd was 5.48
